tested on: LU99A; assay: relative viability (nuclei count vs DMSO), 5 days (fraction); higher = more cells survive; details: first compound 0.1581 µM
# true (1) = relative viability below 0.3 (exclusive); false (0) = relative viability at/above 0.3

{"molecule": "CC1(C)CCC(c2ccc(Cl)cc2)=C(CN2CCN(c3ccc(C(=O)NS(=O)(=O)c4ccc(N[C@H](CCN5CCOCC5)CSc5ccccc5)c(S(=O)(=O)C(F)(F)F)c4)cc3)CC2)C1 [Navitoclax] + N=C(N)NC(=N)NCCc1ccccc1 [Phenformin] (partner 250 µM)", "study target": "LU99A", "category": "false (0)"}
{"molecule": "CC1(C)CCC(c2ccc(Cl)cc2)=C(CN2CCN(c3ccc(C(=O)NS(=O)(=O)c4ccc(N[C@H](CCN5CCOCC5)CSc5ccccc5)c(S(=O)(=O)C(F)(F)F)c4)cc3)CC2)C1 [Navitoclax] + CCNC(=O)c1noc(-c2cc(C(C)C)c(O)cc2O)c1-c1ccc(CN2CCOCC2)cc1 [Luminespib] (partner 0.01 µM)", "study target": "LU99A", "category": "true (1)"}
{"molecule": "CC1(C)CCC(c2ccc(Cl)cc2)=C(CN2CCN(c3ccc(C(=O)NS(=O)(=O)c4ccc(N[C@H](CCN5CCOCC5)CSc5ccccc5)c(S(=O)(=O)C(F)(F)F)c4)cc3)CC2)C1 [Navitoclax] + CC(=O)Nc1cccc(-n2c(=O)n(C3CC3)c(=O)c3c(Nc4ccc(I)cc4F)n(C)c(=O)c(C)c32)c1 [Trametinib] (partner 0.02 µM)", "study target": "LU99A", "category": "false (0)"}
{"molecule": "CC1(C)CCC(c2ccc(Cl)cc2)=C(CN2CCN(c3ccc(C(=O)NS(=O)(=O)c4ccc(N[C@H](CCN5CCOCC5)CSc5ccccc5)c(S(=O)(=O)C(F)(F)F)c4)cc3)CC2)C1 [Navitoclax] + CS(=O)(=O)N1CCN(Cc2cc3nc(-c4cccc5[nH]ncc45)nc(N4CCOCC4)c3s2)CC1 [Pictilisib] (partner 1 µM)", "study target": "LU99A", "category": "false (0)"}
{"molecule": "CC1(C)CCC(c2ccc(Cl)cc2)=C(CN2CCN(c3ccc(C(=O)NS(=O)(=O)c4ccc(N[C@H](CCN5CCOCC5)CSc5ccccc5)c(S(=O)(=O)C(F)(F)F)c4)cc3)CC2)C1 [Navitoclax] + Cc1cc(Nc2cc(N3CCN(C)CC3)nc(Sc3ccc(NC(=O)C4CC4)cc3)n2)n[nH]1 [Tozasertib] (partner 0.1 µM)", "study target": "LU99A", "category": "false (0)"}
